targetOrSystem: human Y2 receptor (human) (UniProt P49146)
Sequence (P49146 whole entry): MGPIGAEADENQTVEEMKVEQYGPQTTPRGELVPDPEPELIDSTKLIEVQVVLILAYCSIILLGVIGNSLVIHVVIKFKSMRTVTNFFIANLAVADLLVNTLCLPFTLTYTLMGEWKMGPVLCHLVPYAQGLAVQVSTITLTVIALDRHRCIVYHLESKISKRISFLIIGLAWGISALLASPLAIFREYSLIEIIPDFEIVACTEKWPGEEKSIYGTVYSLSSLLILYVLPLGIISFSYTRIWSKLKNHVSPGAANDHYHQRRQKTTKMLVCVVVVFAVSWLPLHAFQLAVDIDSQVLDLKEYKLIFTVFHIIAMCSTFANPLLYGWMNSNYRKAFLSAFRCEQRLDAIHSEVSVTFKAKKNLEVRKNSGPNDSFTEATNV
method: RBA: [125I]-PYY displacement, hY2R/CHO membranes
Non-standard residues stand in square brackets, D forms with d. *: point of attachment. Cha = N[C@@H](CC1CCCCC1)C(=O)O; NMeS = CN[C@@H](CO)C(=O)O; Isobutyryl = CC(C)C(=O)*; Abu = CC[C@H](N)C(=O)O; Aib = CC(C)(N)C(=O)O
Parameter IC50 Ratio (vs PYY(3-36)): see the listing below.
recordedMetric: IC50 Ratio (vs PYY(3-36))

1. Ac-A[NMeS][dP]RH[Cha][Cha]NL[Aib]TRQR[Cha]-NH2 (SMILES CC(=O)N[C@@H](C)C(=O)N(C)[C@@H](CO)C(=O)N1CCC[C@@H]1C(=O)N[C@@H](CCCNC(=N)N)C(=O)N[C@@H](Cc1c[nH]cn1)C(=O)N[C@@H](CC1CCCCC1)C(=O)N[C@@H](CC1CCCCC1)C(=O)N[C@@H](CC(N)=O)C(=O)N[C@@H](CC(C)C)C(=O)NC(C)(C)C(=O)N[C@H](C(=O)N[C@@H](CCCNC(=N)N)C(=O)N[C@@H](CCC(N)=O)C(=O)N[C@@H](CCCNC(=N)N)C(=O)N[C@@H](CC1CCCCC1)C(N)=O)[C@@H](C)O) [Ac-[MeSer23, D-Pro24, Cha27,28,36, Aib31]-PYY(22-36)]: 12
2. Isobutyryl-R[Abu][Cha]HNL[Aib]TRQR[Cha]-NH2 (SMILES CC[C@H](NC(=O)[C@H](CCCNC(=N)N)NC(=O)C(C)C)C(=O)N[C@@H](CC1CCCCC1)C(=O)N[C@@H](Cc1c[nH]cn1)C(=O)N[C@@H](CC(N)=O)C(=O)N[C@@H](CC(C)C)C(=O)NC(C)(C)C(=O)N[C@H](C(=O)N[C@@H](CCCNC(=N)N)C(=O)N[C@@H](CCC(N)=O)C(=O)N[C@@H](CCCNC(=N)N)C(=O)N[C@@H](CC1CCCCC1)C(N)=O)[C@@H](C)O) [Isobutanoyl-[Abu26, Cha27,36, His28, Aib31]-PYY(25-36)]: 19
